- SYSTEM: hERG (Homo sapiens, UniProt Q12809)
- Sequence (Q12809 whole entry): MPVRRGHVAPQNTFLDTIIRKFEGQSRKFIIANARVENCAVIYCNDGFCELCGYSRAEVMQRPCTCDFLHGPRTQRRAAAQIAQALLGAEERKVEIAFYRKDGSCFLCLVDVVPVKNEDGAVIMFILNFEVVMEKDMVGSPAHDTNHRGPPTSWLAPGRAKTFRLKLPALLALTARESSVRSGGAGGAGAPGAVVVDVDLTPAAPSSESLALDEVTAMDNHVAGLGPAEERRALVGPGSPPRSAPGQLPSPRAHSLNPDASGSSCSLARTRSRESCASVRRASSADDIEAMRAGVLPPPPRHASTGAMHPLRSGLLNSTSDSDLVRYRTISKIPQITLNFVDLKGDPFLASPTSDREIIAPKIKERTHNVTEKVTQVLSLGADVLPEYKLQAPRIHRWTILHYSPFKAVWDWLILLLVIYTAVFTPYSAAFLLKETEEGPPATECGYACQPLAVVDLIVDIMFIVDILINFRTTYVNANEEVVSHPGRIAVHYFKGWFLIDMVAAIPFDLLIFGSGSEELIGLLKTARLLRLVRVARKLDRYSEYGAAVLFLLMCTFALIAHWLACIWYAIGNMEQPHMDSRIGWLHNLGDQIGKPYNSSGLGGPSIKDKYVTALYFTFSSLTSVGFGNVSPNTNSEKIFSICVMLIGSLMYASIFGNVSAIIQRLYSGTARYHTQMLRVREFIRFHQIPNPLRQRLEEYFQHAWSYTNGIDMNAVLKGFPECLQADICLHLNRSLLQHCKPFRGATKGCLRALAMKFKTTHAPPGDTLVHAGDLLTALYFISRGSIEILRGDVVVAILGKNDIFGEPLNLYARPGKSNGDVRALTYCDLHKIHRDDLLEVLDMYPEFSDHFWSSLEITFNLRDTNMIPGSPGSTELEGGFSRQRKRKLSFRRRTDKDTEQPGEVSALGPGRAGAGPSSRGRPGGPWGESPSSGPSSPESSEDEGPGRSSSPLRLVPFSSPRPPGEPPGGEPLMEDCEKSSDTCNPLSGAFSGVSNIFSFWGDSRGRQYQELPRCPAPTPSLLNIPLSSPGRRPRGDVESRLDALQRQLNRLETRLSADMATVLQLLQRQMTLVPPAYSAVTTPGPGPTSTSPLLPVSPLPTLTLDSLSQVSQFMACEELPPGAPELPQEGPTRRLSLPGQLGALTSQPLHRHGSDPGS
- PROTOCOL DESCRIPTION: Effects on hERG current (whole-cell clamping)
- STUDY CONDITIONS: human, HEK 293 cells that express hERG, pH 7.4, hERG inhibition rate (%) (1 μM), 1 μM; tail peak current; hERG-expressed HEK 293 cells
MEASUREMENT NAME: inhibition at 1 µM (%)
Give a bare numeral; the unit % is implied.

Cc1c(C(=O)Nc2ccc([C@]3(C#N)CC[C@@H](O)CC3)nc2)cnn1-c1ccc(C2CC2)cc1 [Example J19]; 18.5
Cc1cc(NC(=O)c2cnn(-c3ccc(C(F)(F)F)cn3)c2C)cnc1[C@H]1CC[C@H](O)CC1 [Example J7]; 7.9
Cc1cc(NC(=O)c2cnn(-c3ccc(C(F)(F)F)cn3)c2C)cnc1C1=CC[C@H](N2CCOCC2)CC1 [Example D21]; 14.3
Cc1cc(NC(=O)c2cnn(-c3ncc(C4CC4)cc3F)c2C)cnc1C1=CCC(N2CCOCC2)CC1 (stereo not shown) [Example D177]; 13
Cc1cc(NC(=O)c2cnn(-c3ccc(C(F)(F)F)cn3)c2C)cnc1C1CCC(=O)CC1 [Example F32]; 17.9

For the record Cc1c(C(=O)Nc2ccc(C3CCC4(CC3)OCCO4)nc2)cnn1-c1ccc(C(C)(C)C)cc1 [Example D165] , what value of inhibition at 1 µM is listed for hERG (Homo sapiens, UniProt Q12809)? 8.9

Consider next the compound Cc1cc(NC(=O)c2cnn(-c3ccc(C4CC4)cn3)c2C)cnc1C1=CCC(C(=O)NC(C)(C)C)CC1 (stereo not shown) [Example D269] in the same way. 14.1

----------
- SYSTEM: hERG (Homo sapiens, UniProt Q12809)
- PROTOCOL DESCRIPTION: Effects on hERG current (whole-cell clamping)
- STUDY CONDITIONS: human, HEK 293 cells that express hERG, pH 7.4, hERG inhibition rate (%) (1 μM), 1 μM; tail peak current; hERG-expressed HEK 293 cells
MEASUREMENT NAME: inhibition at 1 µM
Please format your answer as a value with the unit trailing.

Cc1ccc(-n2ncc(C(=O)Nc3ccc([C@]4(C#N)CC[C@@H](OCCO)CC4)nc3)c2C)cc1; 2.4%

Tell me the measured inhibition at 1 µM of Cc1c(C(=O)Nc2ccc([C@]3(C#N)CC[C@@H](N4CCOCC4)CC3)nc2)cnn1-c1ccc(F)cc1 , please. 44.4%

Consider next the molecule COc1cc(C(F)(F)F)cnc1-n1ncc(C(=O)Nc2cnc(C3CCC4(CC3)OCCO4)c(C)c2)c1C in the same way. 0.8%

Consider next the molecule Cc1c(C(=O)Nc2ccc([C@]3(C#N)CC[C@@H](N4CCC(O)C4)CC3)nc2)cnn1-c1ccc(C(F)(F)F)cn1 (some centres unmarked) in the same way. 22%

Consider next the molecule CNC1CC=C(c2ncc(NC(=O)c3cnn(-c4ccc(C(F)(F)F)cn4)c3C)cc2C)CC1 (centres unmarked) in the same way. 14.3%

Consider next the molecule Cc1c(C(=O)Nc2ccc(C3CCC(O)CC3)nc2)cnn1-c1ccc(C(F)(F)F)cc1 (centres unmarked) in the same way. 5.1%

Consider next the molecule Cc1c(C(=O)Nc2ccc([C@H]3CC[C@H](O)CC3)nc2)cnn1-c1ccc(OCCOC(C)(C)C)cc1 in the same way. 11.3%

Consider next the molecule Cc1c(C(=O)Nc2ccc(C3(C#N)CCC4(CC3)OCCO4)nc2)cnn1-c1ccc(C(F)(F)F)cc1 in the same way. 36.9%

----------
Here, each record is paired with measured inhibition at 1 µM data.
- SYSTEM: hERG (Homo sapiens)
- PROTOCOL DESCRIPTION: Effects on hERG current (whole-cell clamping)
- STUDY CONDITIONS: human, HEK 293 cells that express hERG, pH 7.4, hERG inhibition rate (%) (1 μM), 1 μM; tail peak current; hERG-expressed HEK 293 cells
Give a bare numeral; the unit % is implied.

CC(=O)N(C)C1CC=C(c2ncc(NC(=O)c3cnn(-c4ccc(C(F)(F)F)cn4)c3C)cc2C)CC1 (stereo not shown); 9.7
CS(=O)(=O)O.Cc1cc(NC(=O)c2cnn(-c3ccc(C(F)(F)F)cn3)c2C)cnc1C1=CCC(N2CCOCC2)CC1 (stereo not shown) [Example D20, mesylate]; 32.2
Cc1cc(NC(=O)c2cnn(-c3ccc(C(F)(F)F)cn3)c2C)cnc1C1=CCC(N(C)C(=O)C(F)(F)F)CC1 (stereo not shown); 35.9

Continue with the next compound.
Tell me the measured inhibition at 1 µM of Cc1ccc(-n2ncc(C(=O)Nc3ccc([C@]4(C#N)CC[C@]5(CCCO5)CC4)nc3)c2C)cc1 , please. 12.8

----------
- SYSTEM: hERG (Homo sapiens, UniProt Q12809)
- PROTOCOL DESCRIPTION: Effects on hERG current (whole-cell clamping)
- STUDY CONDITIONS: human, HEK 293 cells that express hERG, pH 7.4, hERG inhibition rate (%) (1 μM), 1 μM; tail peak current; hERG-expressed HEK 293 cells
Structures can show the parent of a compound that is named as a salt.
Here, each record is paired with measured inhibition at 1 µM data.
Give a bare numeral; the unit % is implied.

Some solved entries appear below for comparison.
Cc1cc(NC(=O)c2cnn(-c3ccc(C(F)(F)F)cn3)c2C)cnc1C1=CCN(C(=O)C(C)(C)C)CC1; 25.6
Cc1c(C(=O)Nc2ccc([C@]3(C#N)CC[C@@H](O)CC3)nc2)cnn1-c1ccc(Cl)cc1; 25.8
Cc1ccc(-n2ncc(C(=O)Nc3ccc(C4CCC(=O)CC4)nc3)c2C)cc1; 2.7
Cc1c(C(=O)Nc2ccc(C3(C#N)CCC4(CC3)OCCO4)nc2)cnn1-c1ccc(C(F)(F)F)cn1; 26.4
Cc1c(C(=O)Nc2ccc([C@]3(C#N)CC[C@@H](N(C)C(=O)C(C)(C)C)CC3)nc2)cnn1-c1ccc(C(F)(F)F)cn1; 5.9
Cc1c(C(=O)Nc2ccc([C@]3(C#N)CC[C@@H](O)CC3)nc2)cnn1-c1ccc(C(F)(F)F)cc1; 26
Cc1cc(NC(=O)c2cnn(-c3ncc(C(F)(F)F)cc3C)c2C)cnc1C1=CCC(N2CCOCC2)CC1 (stereo not drawn); 40
Cc1cc(NC(=O)c2cnn(-c3ncc(C(F)(F)F)cc3F)c2C)cnc1C1=CCC(O)CC1 (stereo not drawn); 4.2
Cc1c(C(=O)Nc2ccc(C3(C#N)CCC(=O)CC3)nc2)cnn1-c1ccc(Cl)c(Cl)c1; 15.4
Cc1ccc(-n2ccc(C(=O)Nc3ccc(C4(C#N)CCC5(CC4)OCCO5)nc3)c2)cc1C; 47.6

Tell me the measured inhibition at 1 µM of Cc1c(C(=O)Nc2ccc([C@]3(C#N)CC[C@@H](O)CC3)nc2)cnn1-c1ccc(OC(F)(F)F)cc1 , please. 12.2

Consider next the compound CC[C@]1(O)CC[C@](C#N)(c2ccc(NC(=O)c3cnn(-c4ccc(Cl)cc4)c3C)cn2)CC1 in the same way. 14.4

Consider next the compound Cc1c(C(=O)Nc2ccc(C3=CCC(N4CCOCC4)CC3)nc2)cnn1-c1ccc(C2CC2)cn1 (stereo not drawn) [Example D5, mesylate] in the same way. 15.1

Consider next the compound Cc1c(C(=O)Nc2ccc([C@]3(C#N)CC[C@@H](N4CCOCC4)CC3)nc2)cnn1-c1ccc(C(C)C)cn1 in the same way. 26.4

Consider next the compound Cc1cc(NC(=O)c2cnn(-c3ccc(F)cc3)c2C)cnc1C1=CCC(N(C)C(=O)C(C)(C)C)CC1 (stereo not drawn) in the same way. 16.8

----------
- SYSTEM: hERG (Homo sapiens, UniProt Q12809)
- PROTOCOL DESCRIPTION: Effects on hERG current (whole-cell clamping)
- STUDY CONDITIONS: human, HEK 293 cells that express hERG, pH 7.4, hERG inhibition rate (%) (1 μM), 1 μM; tail peak current; hERG-expressed HEK 293 cells
Here, each record is paired with measured inhibition at 1 µM data.
Give a bare numeral; the unit % is implied.

Some solved entries appear below for comparison.
COc1cc(NC(=O)c2cnn(-c3ccc(C(F)(F)F)cn3)c2C)cnc1C1=CCC(N(C)C(=O)C(C)(C)C)CC1 (stereo not drawn); 1.3
Cc1cc(NC(=O)c2cnn(-c3ccccc3)c2C)cnc1C1=CCC(N(C)C(=O)C(C)(C)C)CC1 (stereo not drawn); 10
Cc1c(C(=O)Nc2ccc(C3CCC(=O)CC3)nc2)cnn1-c1ccc(Cl)cc1; 10.3
Cc1cc(NC(=O)c2cnn(-c3ccc(C(F)(F)F)cn3)c2C)cnc1C1=CCC(C(=O)N(C)C)CC1 (stereo not drawn); 20.1
Cc1cc(NC(=O)c2cnn(-c3ccc(C(F)(F)F)cn3)c2C)cnc1C1=CCN(S(=O)(=O)C(C)C)CC1; 21.1
Cc1c(C(=O)Nc2ccc([C@]3(C#N)CC[C@@H](O)CC3)nc2)cnn1-c1ccc(F)cc1F; 5.2
Cc1cc(NC(=O)c2cnn(-c3ncc(C(F)(F)F)cc3F)c2C)cnc1C1CCC2(CC1)OCCO2; 13.6
Cc1c(C(=O)Nc2ccc([C@]3(C#N)CC[C@@H](O)CC3)nc2)cnn1-c1ccc(C2CC2)cn1; 10.7

Tell me the measured inhibition at 1 µM of Cc1c(C(=O)Nc2ccc(C3(C#N)CCN(S(=O)(=O)C(C)C)CC3)nc2)cnn1-c1ccc(C(F)(F)F)cn1 , please. 43.7

Consider next the molecule Cc1cc(NC(=O)c2cnn(-c3ccc(C(F)(F)F)cn3)c2C)cnc1C1=CCC(C(=O)NC(C)(C)C)CC1 (stereo not drawn) in the same way. 9.8

Consider next the molecule Cc1cc(NC(=O)c2cnn(-c3ccc(C(F)(F)F)cn3)c2C)cnc1C1=CCC2(CC1)OCCO2 in the same way. 5.6

Consider next the molecule CC(C)c1c(C(=O)Nc2ccc([C@]3(C#N)CC[C@@H](N4CCOCC4)CC3)nc2)cnn1-c1ccc(C(F)(F)F)cn1 in the same way. 26.1

Consider next the molecule Cc1cc(NC(=O)c2cnn(-c3ccc(C(F)(F)F)cn3)c2C)cnc1C1=CC[C@@H](N2CCOCC2)CC1 in the same way. 31
